B1: LINE1-mini (parent)
chain: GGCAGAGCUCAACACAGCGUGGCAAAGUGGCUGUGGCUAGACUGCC

# Variants of: B1
# METHOD DESCRIPTION: self-cleavage, relative activity (ratio to wild type); higher = more cleavage; in vitro, sequencing; the parent is a self-cleaving ribozyme
PARAMETER MEASURED: self-cleavage
// return a plain number; no unit text

What the record says about GGCAGAGGUCAACACAGAGUGGCAAAGUGGCUGUGGCUAGACUGCC [C8G C18A] : self-cleavage is 0.04

What the record says about GGCAUAGCUCAACACAGCGUGGCAAAGAGGCUGUGGCUAGACUGCC [G5U U28A] : self-cleavage is 0.06

What the record says about GGCAGAGCUCAACACAGCGUGGCAAAGUGGCUGUGGCUAGACCGCC [U43C] : self-cleavage is 0.14

What the record says about GGCAGAGCUCAACACAGGGUGGCAAAGUUGCUGUGGCUAGACUGCC [C18G G29U] : self-cleavage is 0.96

What the record says about GGCUGAGGUCAACACAGCGUGGCAAAGUGGCUGUGGCUAGACUGCC [A4U C8G] : self-cleavage is 0.09

What the record says about GGCAGAGAUCAACACAGCGUGGCAAAGUGGCUGUGGCGAGACUGCC [C8A U38G] : self-cleavage is 0.07

What the record says about GGCAGACGUCAACACAGCGUGGCAAAGUGGCUGUGGCUAGACUGCC [G7C C8G] : self-cleavage is 0.29

What the record says about GGCAGAGCUCAACACAGCGUGACAAAGUGGCUGUGGCUAGUCUGCC [G22A A41U] : self-cleavage is 0.66

What the record says about GGCAGAGCUCUACAUAGCGUGGCAAAGUGGCUGUGGCUAGACUGCC [A11U C15U] : self-cleavage is 0.17

What the record says about GGAAGAGCUCAACACAGCGUGGCAAAGUGGCUGUGGCUUGACUGCC [C3A A39U] : self-cleavage is 0.48

What the record says about GGCCGAGCACAACACAGCGUGGCAAAGUGGCUGUGGCUAGACUGCC [A4C U9A] : self-cleavage is 0.18

What the record says about GGCAGAUCUCAACACAGCGUGGCAAAGUGGCUGUGGCUAAACUGCC [G7U G40A] : self-cleavage is 0.16

What the record says about GGCAGAGCUCAACACAGCGUGGCAAAGGGGUUGUGGCUAGACUGCC [U28G C31U] : self-cleavage is 0.47

What the record says about GGCAGAGCGCAACACAGCGUGGCAAAGUGGCUGUGGCAAGACUGCC [U9G U38A] : self-cleavage is 0.06

What the record says about GGCAGAGCUCAACACAGCGUGGUAAAGUGGCUGUGGUUAGACUGCC [C23U C37U] : self-cleavage is 0.04

What the record says about GGCAGAGCCGAACACAGCGUGGCAAAGUGGCUGUGGCUAGACUGCC [U9C C10G] : self-cleavage is 0.03

What the record says about UGCCGAGCUCAACACAGCGUGGCAAAGUGGCUGUGGCUAGACUGCC [G1U A4C] : self-cleavage is 0.06

What the record says about GGCAGAGCUCAACACAGAGUGGCAAAGUGGCUGUUGCUAGACUGCC [C18A G35U] : self-cleavage is 0.07

What the record says about GGCAGAGCUCAAUACAGCGUGGCAAAGUGGCAGUGGCUAGACUGCC [C13U U32A] : self-cleavage is 0.11

What the record says about GACAGAGCUCAACACAGUGUGGCAAAGUGGCUGUGGCUAGACUGCC [G2A C18U] : self-cleavage is 0.46

What the record says about GGCAGACCUCAACACAGCGUGGCAAAGUGGCUGUGUCUAGACUGCC [G7C G36U] : self-cleavage is 0.1
